Where do these numbers come from? They come from patent US5476866A.

# Lookup of reported Test 5 % inhibition keyed by entry
- System: Reverse Passive Arthus Reaction
- ASSAY_PROTOCOL: Reverse Passive Arthus Reaction (Test 5)
- Assay type: in vivo, male or female Wistar rats
- CONDITION_SET: 100 mg/kg p.o. 1 h before challenge; paw volume at 4 h

Cc1cc(NC(=O)c2cnoc2C2CC2)ccc1C#N = 34%
Cc1cc(NC(=O)c2cnoc2C2CC2)ccc1Cl = 28%
Cc1cc(NC(=O)c2cnoc2C2CC2)ccc1Br = 26%
N#Cc1ccc(NC(=O)c2cnoc2C2CC2)cc1 = 36%
Cc1cc(NC(=O)c2cnoc2C2CC2)ccc1C(F)(F)F = 38%

Reading of Test 5 % inhibition for `O=C(Nc1ccc([N+](=O)[O-])cc1)c1cnoc1C1CC1` with Reverse Passive Arthus Reaction: 27%

---

# Lookup of reported half-life keyed by entry
- ASSAY_PROTOCOL: Kinetic data: plasma concentrations after oral administration to mice
- Format: in vivo
- CONDITION_SET: mouse, 30 mg/kg oral, plasma concentrations monitored for 72 hours, read-out: metabolic half-life (converted)
- Experimental: A comparison was made between a known compound, namely 5 -cyclopropyl-N-(4-trifluoromethylphenyl)-isoxazole-4-carboxamide and the compounds of the present invention, namely compounds of Examples 5 and 6 above. The compounds were administered orally to mice at doses of 30 mg/kg and plasma concentrations were monitored for 72 hours.

Cc1cc(NC(=O)c2cnoc2C2CC2)ccc1C(F)(F)F [Example 6] = 8.2 h
O=C(Nc1ccc(C(F)(F)F)cc1)c1cnoc1C1CC1 [reference compound] = ~21.4 h

Short answer for Cc1cc(NC(=O)c2cnoc2C2CC2)ccc1C#N [Example 5] : half-life was 7.1 h
